Biological target: TGase2 (Homo sapiens)
Sequence (P21980 whole entry): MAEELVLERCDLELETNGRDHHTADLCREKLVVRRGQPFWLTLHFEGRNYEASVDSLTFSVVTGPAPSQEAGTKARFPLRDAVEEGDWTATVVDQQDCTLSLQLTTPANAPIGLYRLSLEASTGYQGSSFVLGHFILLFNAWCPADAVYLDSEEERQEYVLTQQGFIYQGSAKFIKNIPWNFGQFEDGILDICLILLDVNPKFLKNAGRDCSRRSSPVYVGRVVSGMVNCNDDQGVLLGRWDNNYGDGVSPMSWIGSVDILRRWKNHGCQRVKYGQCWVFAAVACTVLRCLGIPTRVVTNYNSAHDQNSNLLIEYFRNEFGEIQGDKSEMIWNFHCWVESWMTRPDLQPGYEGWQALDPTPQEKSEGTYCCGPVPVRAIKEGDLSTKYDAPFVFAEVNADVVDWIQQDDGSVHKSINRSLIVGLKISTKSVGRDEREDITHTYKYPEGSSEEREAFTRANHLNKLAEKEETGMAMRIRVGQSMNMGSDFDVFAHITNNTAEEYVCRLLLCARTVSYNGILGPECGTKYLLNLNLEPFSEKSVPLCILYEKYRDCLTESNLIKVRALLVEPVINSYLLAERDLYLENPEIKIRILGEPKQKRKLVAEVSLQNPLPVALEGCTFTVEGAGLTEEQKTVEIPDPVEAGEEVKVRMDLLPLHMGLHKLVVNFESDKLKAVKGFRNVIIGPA
Test: In-situ TGase activity by confocal microscopy in VEGF-treated HRECs
Format: cell-based
Design: endogenous in cells; host or cells: human retinal endothelial cells (HRECs)
Settings: 10 ng/ml VEGF 2 hrs, 50 μM cystamine, 20 μM MDC, 5 μM BAPTA-AM, 1 mM NAC, 0.5 μM Trolox, p<0.001
quantity_measured: VEGF-induced TGase activation (in-situ TGase activity)

compound	data_value
Cc1c(C)c2c(c(C)c1O)CCC(C)(C(=O)O)O2 (centres unmarked)	inhibited
CN(C)c1cccc2c(S(=O)(=O)NCCCCCN)cccc12	prevented
CC(=O)N[C@@H](CS)C(=O)O	inhibited
NCCSSCCN	prevented
CC(=O)OCOC(=O)CN(CC(=O)OCOC(C)=O)c1ccccc1OCCOc1ccccc1N(CC(=O)OCOC(C)=O)CC(=O)OCOC(C)=O	inhibited
